target: recombinant human α1D receptor (Homo sapiens, UniProt P25100); construct: expressed in transfected cells; host or cells: HEK293; assay: Adrenergic α1D selectivity binding assay ([3H]-prazosin); conditions: inhibition of [3H]-prazosin (0.3 nM) binding, HEK293 membranes; read-out: α1 bind pIC50 (converted)
Sequence (P25100 whole entry): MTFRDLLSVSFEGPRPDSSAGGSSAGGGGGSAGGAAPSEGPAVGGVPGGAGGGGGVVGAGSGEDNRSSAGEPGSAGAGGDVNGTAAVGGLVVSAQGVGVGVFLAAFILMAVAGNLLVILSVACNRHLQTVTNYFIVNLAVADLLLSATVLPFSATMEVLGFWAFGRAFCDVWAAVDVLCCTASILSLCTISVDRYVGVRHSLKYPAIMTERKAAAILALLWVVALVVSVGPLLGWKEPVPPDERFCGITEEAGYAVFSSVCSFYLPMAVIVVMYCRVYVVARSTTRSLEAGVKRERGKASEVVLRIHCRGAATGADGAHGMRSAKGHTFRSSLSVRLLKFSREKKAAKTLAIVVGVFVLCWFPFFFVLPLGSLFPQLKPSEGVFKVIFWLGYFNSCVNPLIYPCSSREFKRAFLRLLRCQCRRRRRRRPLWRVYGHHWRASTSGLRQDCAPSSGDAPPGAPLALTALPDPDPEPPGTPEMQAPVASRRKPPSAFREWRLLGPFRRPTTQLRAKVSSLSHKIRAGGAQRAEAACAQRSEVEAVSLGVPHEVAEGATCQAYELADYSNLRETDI
Counter-ions that a name gives are not always drawn.
Values of IC50 strictly less than 300 nM map to Fulfilled, and values of at least 300 nM map to Not fulfilled.

Ask: Just wondering, is IC50 of O=C(CCNCCc1nc2ccccc2[nH]1)N(CCNCCc1ccc(O)c2[nH]c(=O)sc12)C1CCCCC1 [Example 77, tris-trifluoroacetic acid salt] below 300 nM?
Result: Fulfilled

Ask: Just wondering, is IC50 of COc1cccc(CCNCCC(=O)N(CCNCCc2ccc(O)c3[nH]c(=O)sc23)CC(C)(C)C)c1 [Example 43, bis-trifluoroacetic acid salt] below 300 nM?
Result: Fulfilled

Ask: Just wondering, is IC50 of O=C(CCNCCc1cc(F)cc(F)c1)N(CCNCCc1ccc(O)c2[nH]c(=O)sc12)C1CCCCCC1 [Example 58, bis-trifluoroacetic acid salt] below 300 nM?
Result: Fulfilled

Ask: Just wondering, is IC50 of O=C(CCNCCc1ccccc1)N(CCNCCc1ccc(O)c2[nH]c(=O)sc12)C1CCC(F)(F)CC1 [Example 4, bis-trifluoroacetic acid salt] below 300 nM?
Result: Fulfilled

Ask: Just wondering, is IC50 of CC(C)(C)CN(CCNCCc1ccc(O)c2[nH]c(=O)sc12)C(=O)CCNC(C)(C)Cc1ccccc1 [Example 38, bis-trifluoroacetic acid salt] below 300 nM?
Result: Not fulfilled

Ask: Just wondering, is IC50 of CC(C)(CNCCC(=O)N(CCNCCc1ccc(O)c2[nH]c(=O)sc12)C1CCCC1)c1ccccc1 [Example 32, bis-trifluoroacetic acid salt] below 300 nM?
Result: Not fulfilled

====

target: recombinant human α1D receptor (Homo sapiens, UniProt P25100); construct: expressed in transfected cells; host or cells: HEK293; experiment: Adrenergic α1D selectivity binding assay ([3H]-prazosin); conditions: inhibition of [3H]-prazosin (0.3 nM) binding, HEK293 membranes; read-out: α1 bind pIC50 (converted)
Counter-ions that a name gives are not always drawn.
measurement-label: IC50
Include the unit after the number when you answer.

Ask: Please report the recorded IC50 for CCCC[C@H](C)N(CCNCCc1ccc(O)c2[nH]c(=O)sc12)C(=O)CCNCCc1ccccc1 [Example 102, bis-trifluoroacetic acid salt] .
Result: 100 nM

Ask: Please report the recorded IC50 for CCCC(CCC)N(CCNCCc1ccc(O)c2[nH]c(=O)sc12)C(=O)CCNCCc1cccc(F)c1 [Example 63, bis-trifluoroacetic acid salt] .
Result: 158 nM

Ask: Please report the recorded IC50 for O=C(CCNCCc1cccc(F)c1)N(CCNCCc1ccc(O)c2[nH]c(=O)sc12)C1CCCCC1 [Example 96, dihydrobromide salt] .
Result: 200 nM

Ask: Please report the recorded IC50 for O=C(CCNCCc1c(F)cccc1F)N(CCNCCc1ccc(O)c2[nH]c(=O)sc12)C1CCCCCC1 [Example 84, bis-trifluoroacetic acid salt] .
Result: 100 nM

Ask: Please report the recorded IC50 for O=C(CCNCCc1cccc(Cl)c1)N(CCNCCc1ccc(O)c2[nH]c(=O)sc12)C1CCCC1 [Example 30, bis-trifluoroacetic acid salt] .
Result: 200 nM

Ask: Please report the recorded IC50 for O=C(CCNCCc1cccc(Cl)c1)N(CCNCCc1ccc(O)c2[nH]c(=O)sc12)C1Cc2ccccc2C1 [Example 42, bis-trifluoroacetic acid salt] .
Result: 63.1 nM

====

target: Adrenergic β2 (Homo sapiens, UniProt P07550); construct: Adherent H292 cells were removed from tissue culture flasks; endogenous in cells; host or cells: H292 cells; test: Adrenergic β2 mediated cAMP production in H292 cells; type: cell-based; conditions: H292 cells, cAMP by AlphaScreen, 60 minutes at room temperature, rolipram 300 μM; read-out: β2 pEC50 (converted)
Sequence (P07550 whole entry): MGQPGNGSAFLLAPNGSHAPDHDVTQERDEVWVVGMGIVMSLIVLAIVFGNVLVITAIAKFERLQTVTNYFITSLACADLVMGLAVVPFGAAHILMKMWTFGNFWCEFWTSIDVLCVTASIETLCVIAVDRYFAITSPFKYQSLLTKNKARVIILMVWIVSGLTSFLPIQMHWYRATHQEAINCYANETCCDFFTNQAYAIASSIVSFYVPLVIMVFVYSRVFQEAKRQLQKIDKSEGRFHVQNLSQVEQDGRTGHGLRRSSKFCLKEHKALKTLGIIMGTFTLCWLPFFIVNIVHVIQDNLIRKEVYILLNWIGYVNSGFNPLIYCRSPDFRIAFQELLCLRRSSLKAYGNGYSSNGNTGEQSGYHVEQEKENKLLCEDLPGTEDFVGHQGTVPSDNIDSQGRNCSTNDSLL
Counter-ions that a name gives are not always drawn.
For each of the compounds below, state its EC50.
The figure you give is taken to be in µM; do not add the unit.

Ask: Missing value: EC50, Adrenergic β2 (Homo sapiens, UniProt P07550), entry O=C(CCNCCc1ccc(F)cc1)N(CCNCCc1ccc(O)c2[nH]c(=O)sc12)CC12CC3CC(CC(C3)C1)C2 [Example 61, bis-trifluoroacetic acid salt] . Fill in?
Result: 0.01

Ask: Missing value: EC50, Adrenergic β2 (Homo sapiens, UniProt P07550), entry O=C(CCNCCc1cccc(F)c1)N(CCNCCc1ccc(O)c2[nH]c(=O)sc12)C1CCCCC1 [Example 96, dihydrobromide salt] . Fill in?
Result: 0.00251

Ask: Missing value: EC50, Adrenergic β2 (Homo sapiens, UniProt P07550), entry NS(=O)(=O)c1ccc(CCNCCC(=O)N(CCNCCc2ccc(O)c3[nH]c(=O)sc23)C2CCCCC2)cc1 [Example 69, bis-trifluoroacetic acid salt] . Fill in?
Result: 0.002

Ask: Missing value: EC50, Adrenergic β2 (Homo sapiens, UniProt P07550), entry O=C(CCNCCc1ccc(F)cc1F)N(CCNCCc1ccc(O)c2[nH]c(=O)sc12)C1CCCCCC1 [Example 55, bis-trifluoroacetic acid salt] . Fill in?
Result: 0.01

Ask: Missing value: EC50, Adrenergic β2 (Homo sapiens, UniProt P07550), entry O=C(CCNCCc1ccc(F)c(F)c1)N(CCNCCc1ccc(O)c2[nH]c(=O)sc12)C1CCCCCC1 [Example 53, bis-trifluoroacetic acid salt] . Fill in?
Result: 0.01

Ask: Missing value: EC50, Adrenergic β2 (Homo sapiens, UniProt P07550), entry C[C@H](CNCCC(=O)N(CCNCCc1ccc(O)c2[nH]c(=O)sc12)C1CCCC1)c1ccccc1 [Example 31, bis-trifluoroacetic acid salt] . Fill in?
Result: 0.01

====

target: Adrenergic β2 (Homo sapiens); construct: Adherent H292 cells were removed from tissue culture flasks; endogenous in cells; host or cells: H292 cells; test: Adrenergic β2 mediated cAMP production in H292 cells; assay type: cell-based; details: H292 cells, cAMP by AlphaScreen, 60 minutes at room temperature, rolipram 300 μM
Where a name gives a salt, the structure may show the parent alone.
For each of the compounds below, state its β2 pEC50.
Just the number, please, no unit after it.

Ask: Please report the recorded β2 pEC50 for O=C(CCNCCc1cccc(F)c1)N(CCNCCc1ccc(O)c2[nH]c(=O)sc12)C1CCCCC1 [Example 15, bis-trifluoroacetic acid salt] .
Result: 8.6

Ask: Please report the recorded β2 pEC50 for O=C(CCNCCc1ccc(Cl)c(Cl)c1)N(CCNCCc1ccc(O)c2[nH]c(=O)sc12)C1CCOCC1 [Example 94, dihydrobromide salt] .
Result: 8.1

Ask: Please report the recorded β2 pEC50 for O=C(CCNCCc1cccc(F)c1)N(CCNCCc1ccc(O)c2[nH]c(=O)sc12)C1CCCCCC1 [Example 95] .
Result: 8.6

Ask: Please report the recorded β2 pEC50 for O=C(CCNCCc1cccc(F)c1F)N(CCNCCc1ccc(O)c2[nH]c(=O)sc12)C1CCCCC1 [Example 93, dihydrobromide salt] .
Result: 8.6

Ask: Please report the recorded β2 pEC50 for O=C(CCNCCc1cc(F)cc(F)c1)N(CCNCCc1ccc(O)c2[nH]c(=O)sc12)C1CCCCC1 [Example 92, dihydrobromide salt] .
Result: 8.5

====

For each of the molecules below, state its β2 Int Act.
molecular target: Adrenergic β2 (Homo sapiens, UniProt P07550); construct: Adherent H292 cells were removed from tissue culture flasks; endogenous in cells; host or cells: H292 cells; test: Adrenergic β2 mediated cAMP production in H292 cells; assay type: cell-based; conditions: Intrinsic Activity as a fraction relative to the maximum activity determined for formoterol
Where a name gives a salt, the structure may show the parent alone.
Just the number, please, no unit after it.

Ask: Missing value: β2 Int Act, Adrenergic β2 (Homo sapiens, UniProt P07550), entry O=C(CCNCCc1ccccc1)N(CCNCCc1ccc(O)c2[nH]c(=O)sc12)CC12CC3CC(CC(C3)C1)C2 [Example 59, bis-trifluoroacetic acid salt] . Fill in?
Result: 0.85

Ask: Missing value: β2 Int Act, Adrenergic β2 (Homo sapiens, UniProt P07550), entry O=C(CCNCCc1cccc(F)c1)N(CCNCCc1ccc(O)c2[nH]c(=O)sc12)C1CCCCC1 [Example 96, dihydrobromide salt] . Fill in?
Result: 0.85

Ask: Missing value: β2 Int Act, Adrenergic β2 (Homo sapiens, UniProt P07550), entry CC(C)N(CCNCCc1ccc(O)c2[nH]c(=O)sc12)C(=O)CCNCCc1ccccc1 [Example 1, bis-trifluoroacetic acid salt] . Fill in?
Result: 0.78

Ask: Missing value: β2 Int Act, Adrenergic β2 (Homo sapiens, UniProt P07550), entry O=C(CCNCCc1ccc(F)cc1)N(CCNCCc1ccc(O)c2[nH]c(=O)sc12)C1CCCCC1 [Example 16, bis-trifluoroacetic acid salt] . Fill in?
Result: 0.91

Ask: Missing value: β2 Int Act, Adrenergic β2 (Homo sapiens, UniProt P07550), entry C[C@H](CNCCC(=O)N(CCNCCc1ccc(O)c2[nH]c(=O)sc12)CC(C)(C)C)c1ccccc1 [Example 11, bis-trifluoroacetic acid salt] . Fill in?
Result: 0.84

Ask: Missing value: β2 Int Act, Adrenergic β2 (Homo sapiens, UniProt P07550), entry O=C(CCNCCc1ccc(Cl)c(Cl)c1)N(CCNCCc1ccc(O)c2[nH]c(=O)sc12)C1CCC(F)(F)CC1 [Example 49, bis-trifluoroacetic acid salt] . Fill in?
Result: 0.59

Ask: Missing value: β2 Int Act, Adrenergic β2 (Homo sapiens, UniProt P07550), entry O=C(CCNCCc1ccccc1)N(CCNCCc1ccc(O)c2[nH]c(=O)sc12)C1CCCCC1 [Example 5, bis-trifluoroacetic acid salt] . Fill in?
Result: 0.83

Ask: Missing value: β2 Int Act, Adrenergic β2 (Homo sapiens, UniProt P07550), entry CC(CN(C(=O)CCNCCc1cccc(F)c1)C1CCCCCC1)NCCc1ccc(O)c2[nH]c(=O)sc12 (stereo not drawn) [Example 104, bis-trifluoroacetic acid salt] . Fill in?
Result: 0.81

Ask: Missing value: β2 Int Act, Adrenergic β2 (Homo sapiens, UniProt P07550), entry O=C(CCNCCc1cccc(O)c1)N(CCNCCc1ccc(O)c2[nH]c(=O)sc12)C1CCCCCCC1 [Example 90, bis-trifluoroacetic acid salt] . Fill in?
Result: 0.71

Ask: Missing value: β2 Int Act, Adrenergic β2 (Homo sapiens, UniProt P07550), entry O=C(CCNCCc1nc2ccccc2[nH]1)N(CCNCCc1ccc(O)c2[nH]c(=O)sc12)C1CCCCC1 [Example 77, tris-trifluoroacetic acid salt] . Fill in?
Result: 0.54

Ask: Missing value: β2 Int Act, Adrenergic β2 (Homo sapiens, UniProt P07550), entry CC(=O)OCC(C)(C)CN(CCNCCc1ccc(O)c2[nH]c(=O)sc12)C(=O)CCNCCc1ccc(Cl)cc1 [Example 39, acetate diacetic acid salt] . Fill in?
Result: 0.58

Ask: Missing value: β2 Int Act, Adrenergic β2 (Homo sapiens, UniProt P07550), entry O=C(CCNCCc1ccc(O)c(Cl)c1)N(CCNCCc1ccc(O)c2[nH]c(=O)sc12)C1CCCCC1 [Example 89, bis-trifluoroacetic acid salt] . Fill in?
Result: 0.9
